- assayed.system: Dual specificity protein phosphatase 3 (Homo sapiens)
- Sequence (P51452 whole entry): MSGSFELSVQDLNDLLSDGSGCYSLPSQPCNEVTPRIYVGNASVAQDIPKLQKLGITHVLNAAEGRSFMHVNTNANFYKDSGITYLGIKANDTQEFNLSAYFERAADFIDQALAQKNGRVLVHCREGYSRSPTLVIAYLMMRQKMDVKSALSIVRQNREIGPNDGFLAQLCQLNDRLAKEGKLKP
- assay.procedure: Inhibition of Vaccinia H1-related phosphatase (unknown origin) by fluorescence emission assay
quantity: IC50 (nM)
Write the answer as a number in nM, unit excluded.

Complete the entry with IC50 for CCCCCCCCCCCCCCC/C(NCc1cccc(C)c1)=C1/C(=O)OC(CO)C1=O (stereo unspecified) 1600

----------
- Test system: HeLa
- assay.procedure: Antiproliferative activity against human HeLa cells at 20 uM after 48 hrs incubation by Alamar Blue assay
- Type: functional, cell-based
Calls of active or inactive are those of the source. No cut-off for these calls is given here.
quantity: inhibition

compound | result
Cc1cccc(CN/C(CCCCc2cccc(OCc3cccc(Cl)c3)c2)=C2\C(=O)OC(CO)C2=O)c1 (stereo not given) | Active
Cc1cccc(CN/C(CCCCc2cccc(OCc3ccc(Cl)cc3)c2)=C2\C(=O)OC(CO)C2=O)c1 (stereo not given) | Active
Cc1cccc(CN/C(CCCCc2cccc(OCc3ccccc3Cl)c2)=C2\C(=O)OC(CO)C2=O)c1 (stereo not given) | Active
Cc1cccc(CN/C(CCCCc2ccccc2OCc2ccc([N+](=O)[O-])cc2)=C2\C(=O)OC(CO)C2=O)c1 (stereo not given) | Active

Continue with the compound presented below.
# return inhibition for Cc1cccc(CN/C(CCCCc2ccccc2OCc2ccc(Cl)cc2)=C2\C(=O)OC(CO)C2=O)c1 (stereo not given) , test system: HeLa Active
